- testTarget: biotinylated His-Avi-TEAD (194-411) (UniProt P28347)
- testSummary: SSM screen, enrichment after two rounds of sorting
The reader will find reported enrichment score values listed item by item below.

Solved cases (2 shown):
- binder: "GSPDEYIERAKECCKKGEIQCCLRYFEESGDPNVMLICLFCP (designed binder) [D16E variant of SEQ ID NO: 1]"
  enrichment score: -3.6
- binder: "GSPDEYIERAFECCKKGDIQCCLRYFEESGDPNVMLICLFCP (designed binder) [K09F variant of SEQ ID NO: 1]"
  enrichment score: -3.52

Please look at the following binder next.
Enquiry: Which enrichment score is reported for this binder? GSPDEYIERGKECCKKGDIQCCLRYFEESGDPNVMLICLFCP (designed binder) [A08G variant of SEQ ID NO: 1]
Return: -4.11

The reported measurements were obtained from patent US20230151068A1.
